Recorded Plant response rating, Bedstraw by entry
# Test system: bedstraw
# testMethodNotes: Test B pre/postemergence bedstraw
# Format: in vivo, Galium aparine
# testSettings: Rate 250 g/ha, Postemergence; scale of 0 to 10 where 0 is no effect and 10 is complete control
Please give only the number in your answer, with no unit.

Some molecules with recorded Plant response rating, Bedstraw:
Q. Param item = CC(C)N(C(=O)n1oc(=O)n(C2CCCCCC2)c1=O)c1ccc(Cl)cc1 ; retrieve measured Plant response rating, Bedstraw.
A. 7

Q. Which value of Plant response rating, Bedstraw has been reported for CCOC(=O)C=C(Cn1c(=O)on(C(=O)N(c2ccc(F)cc2F)C(C)C)c1=O)OCC in the records?
A. 0

Q. GET /values?readout=Plant response rating, Bedstraw&item= CC(C)N(C(=O)n1oc(=O)n(C2CCCC2)c1=O)c1ccc(F)cc1F
A. 6

---
Q. Entry Cc1cccc(C)c1-n1c(=O)on(C(=O)N(c2ccc(Cl)cc2Cl)C2CCC2)c1=O : reported Plant response rating, Bedstraw = ?
A. 0

----------
# Tested on: pigweed
# testMethodNotes: Test B pre/postemergence pigweed
# Assay type: in vivo, Amaranthus retroflexus
# testSettings: Preemergence, Rate 62 g/ha; scale 0 to 10 (0 no effect, 10 complete control)
# Redroot pigweed plant response rating per record follows
Keep the answer to the number alone.

Record excerpt, results attached:
Q. Record request: Redroot pigweed plant response rating value, item CCOC(=O)C=C(Cn1c(=O)on(C(=O)N(c2ccccc2)C(C)C)c1=O)OCC [Compound 578]
A. 2

Q. May I ask what Redroot pigweed plant response rating has been recorded for Cc1noc(C)c1-n1c(=O)on(C(=O)N(c2ccc(F)cc2)C(C)C)c1=O [Compound 155] ?
A. 0

Q. Endpoint output: Redroot pigweed plant response rating of Cc1nn(C)c(C)c1-n1c(=O)on(C(=O)N(c2ccc(F)cc2)C(C)C)c1=O [Compound 75] . Value?
A. 0

Next:
Q. Value lookup for Redroot pigweed plant response rating; key = CCc1nc(C)c(C(C)n2c(=O)on(C(=O)N(c3ccc(Cl)cc3)C(C)C)c2=O)s1 (stereo not shown) [Compound 590]
A. 0

----------
# System: morningglory
# testMethodNotes: Test B pre/postemergence morningglory
# Type: in vivo, Ipomoea hederacea
# testSettings: Rate 500 g/ha, Postemergence; scale 0 to 10, 0 no effect, 10 complete control
Could you mark each record true (1) if its Morningglory plant response rating falls strictly under 4, and false (0) if it equals or exceeds it?

For orientation, consider the following solved cases.
Q. Please indicate whether the reported Morningglory plant response rating of CC(C)N(C(=O)n1oc(=O)n(Cc2cccs2)c1=O)c1ccc(F)cc1 [Compound 80] is strictly below 4.
A. false (0)

Q. Record Cc1ccccc1-n1c(=O)on(C(=O)N(c2ccc(C(C)(C)C)cc2)C(C)C)c1=O [Compound 270] : is its Morningglory plant response rating strictly below 4?
A. true (1)

Q. hey, is Morningglory plant response rating for CCn1c(=O)on(C(=O)N(c2ccc(Cl)cc2)C(C)C)c1=O [Compound 108] lower than 4 or not?
A. true (1)

Q. Hello, I'm reviewing records and need to know if Morningglory plant response rating of Cc1ccccc1-n1c(=O)on(C(=O)N(c2ccc(N(C)C)cc2)C(C)C)c1=O [Compound 237] is below 4. Could you check?
A. false (0)

Q. In the record for CCN(CC)C(=O)n1oc(=O)n(-c2cccc3c2CCCC3)c1=O [Compound 89] , is Morningglory plant response rating less than 4?
A. true (1)

Q. # TODO verify Morningglory plant response rating < 4 strictly for this compound: CC(C)N(C(=O)n1oc(=O)n(CC2(C)COC2)c1=O)c1ccc(F)cc1 [Compound 226]
A. false (0)

***
Q. In plain terms, does C=CCn1c(=O)on(C(=O)N(c2ccccc2)C(C)C)c1=O [Compound 93] come in under 4 for Morningglory plant response rating?
A. false (0)

Q. Threshold test, Morningglory plant response rating < 4: CCCn1c(=O)on(C(=O)N(c2ccc(Cl)cc2)C(C)C)c1=O [Compound 119]
A. false (0)

----------
# Test system: surinam grass
# testMethodNotes: Test B pre/postemergence surinam grass
# Format: in vivo, Brachiaria decumbens
# testSettings: Preemergence, Rate 250 g/ha; scale 0 to 10, 0 is no effect, 10 is complete control
# Procedure: […] At the same time, these crop and weed species were also treated with postemergence applications of test chemicals formulated in the same manner. […] Treated plants and controls were maintained in a greenhouse for twelve to sixteen days, after which all species were compared to controls and visually evaluated. […]
measureName: B. signalgrass plant response rating

Q. # query: B. signalgrass plant response rating of entry CC(C)N(C(=O)n1oc(=O)n(CC2(C)COC2)c1=O)c1ccc(F)cc1 [Compound 226]
A. 9

Q. Could you tell me which B. signalgrass plant response rating is on file for C=CCn1c(=O)on(C(=O)N(c2ccc(F)cc2)C2CCC2)c1=O [Compound 194] ?
A. 0

New cases:
Q. Need B. signalgrass plant response rating, item CC(C)N(C(=O)n1oc(=O)n(CNC(=O)c2ccccc2)c1=O)c1ccc(F)cc1 [Compound 445]
A. 2

Q. Which B. signalgrass plant response rating value belongs to CC(C)N(C(=O)n1oc(=O)n(CCC(F)=C(F)F)c1=O)c1ccc(F)cc1 [Compound 218] ?
A. 6

Q. Please look up its B. signalgrass plant response rating: C=CC[Si](C)(C)Cn1c(=O)on(C(=O)N(c2ccc(F)cc2)C(C)C)c1=O [Compound 426]
A. 6

Q. Param item = COC(CCl)n1c(=O)on(C(=O)N(c2ccc(Cl)cc2)C(C)C)c1=O (stereo not shown) [Compound 458] ; retrieve measured B. signalgrass plant response rating.
A. 4

Q. Given COC(OC)C(C)n1c(=O)on(C(=O)N(c2ccc(F)cc2F)C(C)C)c1=O (stereo not shown) [Compound 472] , state its recorded B. signalgrass plant response rating.
A. 9

----------
# System: cocklebur
# testMethodNotes: Test B pre/postemergence cocklebur
# Type: in vivo, Xanthium strumarium
# testSettings: Postemergence, Rate 62 g/ha; scale of 0 to 10, 0 is no effect, 10 is complete control
measureName: Cocklebur plant response rating
Note: the reply should be a number with no unit written.

See these solved cases before continuing.
Q. Lookup: Cocklebur plant response rating / cocklebur / CCc1nc(C)c(Cn2c(=O)on(C(=O)N(c3ccc(Cl)cc3)C(C)C)c2=O)s1
A. 0

Q. Value wanted: Cocklebur plant response rating (cocklebur) of entry CC(=O)OCC(CCl)n1c(=O)on(C(=O)N(c2ccc(F)cc2)C(C)C)c1=O (stereo not drawn)
A. 0

// below: Cocklebur plant response rating requested for another molecule
Q. Which measured Cocklebur plant response rating belongs to CC(C)N(C(=O)n1oc(=O)n(CCc2ccccc2)c1=O)c1ccc(F)cc1F , tested on cocklebur?
A. 0

----------
# System: wild oat
# testMethodNotes: Test B pre/postemergence wild oat
# Assay type: in vivo, Avena fatua
# testSettings: Preemergence, Rate 250 g/ha; scale of 0 to 10 where 0 is no effect and 10 is complete control
Below is a list of entries, each paired with its recorded Plant response rating, Wild oats value.
Form field (numeric): enter value without unit.

Q. Requested read-out: Plant response rating, Wild oats. Entry: CC(C)N(C(=O)n1oc(=O)n(-c2ccc(OC(F)(F)F)cc2)c1=O)C1=CCOCC1
A. 0

Q. What value of measured Plant response rating, Wild oats is listed for CCN(C(=O)n1oc(=O)n(-c2c(C)cc(C)cc2C)c1=O)C1CCCCC1 ?
A. 0

Q. If you can, please state the reported Plant response rating, Wild oats value of CCCn1c(=O)on(C(=O)N(c2ccc(Cl)cc2)C(C)C)c1=O .
A. 6

Q. Returns the measured Plant response rating, Wild oats for the input compound. Input: CCN(CC)C(=O)n1oc(=O)n(-c2ccc(OC)cc2)c1=O
A. 0

Q. Which measured Plant response rating, Wild oats value corresponds to Cc1ccccc1Cn1c(=O)on(C(=O)N(c2ccc(F)cc2)C(C)C)c1=O ?
A. 2

Q. Could you tell me which Plant response rating, Wild oats is on file for CCc1noc(CC)c1-n1c(=O)on(C(=O)N(c2ccc(F)cc2)C(C)C)c1=O ?
A. 0

Q. Field request: Plant response rating, Wild oats | item: CCn1c(=O)on(C(=O)N(c2ccc(Cl)cc2)C(C)C)c1=O
A. 9

Q. Any idea what Plant response rating, Wild oats was measured for CCc1ccccc1-n1c(=O)on(C(=O)N(c2ccc(F)cc2F)C(C)C)c1=O ?
A. 0

Attention now turns to another entry.
Q. // query Plant response rating, Wild oats value for entry Cc1ccccc1-n1c(=O)on(C(=O)N(c2ccc(Cl)cc2)C(C)C)c1=O
A. 0

----------
Property: Wheat plant response rating; scope: individual compounds
# System: wheat
# testMethodNotes: Test B pre/postemergence wheat
# Assay type: in vivo, Triticum aestivum
# testSettings: Preemergence, Rate 500 g/ha; scale 0 to 10 (0 no effect, 10 complete control)
Kindly provide the number alone.

Solved entries:
Q. Give the reported Wheat plant response rating for CC(C)N(C(=O)n1oc(=O)n(C2CCCCC2)c1=O)c1ccc(Cl)cc1 [Compound 111] (system: wheat).
A. 3

Q. Notebook entry, wheat assay: Wheat plant response rating of CC(C)N(C(=O)n1oc(=O)n(CC(F)(F)F)c1=O)c1ccc(F)cc1 [Compound 163] = ?
A. 4

Q. Hello, I am looking for reported Wheat plant response rating with wheat for CCn1c(=O)on(C(=O)N(c2ccc(Cl)cc2)C(C)C)c1=O [Compound 108] . Could you help?
A. 3

Others:
Q. What measured Wheat plant response rating is associated with CC(C)Cn1c(=O)on(C(=O)N(c2ccc(F)cc2)C(C)C)c1=O [Compound 169] on wheat?
A. 4
